molecular target: the molecule itself; assay: AUC; sedimentation velocity of the SCR fragments, 20 °C, 50,000 rpm, Hepes buffer (10 mM Hepes, 137 mM NaCl, pH 7.4), c(s) analysis in SEDFIT, proportions of monomer and dimer from peak integration; monomer to dimer

{"protein": "SCR-16/18H, glycosylated three-domain fragment of complement factor H expressed in Pichia pastoris (domain or fragment, Pichia hyperglycosylated N-linked glycans at Asn1011 and Asn1077) EGLPCKSPPEISHGVVAHMSDSYQYGEEVTYKCFEGFGIDGPAIAKCLGEKWSHPPSCIKTDCLSLPSFENAIPMGEKKDVYKAGEQVTYTCATYYKMDGASNVTCINSRWTGRPTCRDTSCVNPPTVQNAYIVSRQMSKYPSGERVRYQCRSPYEMFGDEEVMCLNGNWTEPPQCKDST", "stoichiometry N": 2}
{"protein": "SCR-17/18H, glycosylated two-domain fragment of complement factor H expressed in Pichia pastoris (domain or fragment, Pichia hyperglycosylated N-linked glycans (Man8-18GlcNAc2) at Asn1011 and Asn1077) IKTDCLSLPSFENAIPMGEKKDVYKAGEQVTYTCATYYKMDGASNVTCINSRWTGRPTCRDTSCVNPPTVQNAYIVSRQMSKYPSGERVRYQCRSPYEMFGDEEVMCLNGNWTEPPQCKDST", "stoichiometry N": 2}
